These measurements were taken from the supplement of paper PMC12667976.

B1: library; numbered along this chain (parent)
chain: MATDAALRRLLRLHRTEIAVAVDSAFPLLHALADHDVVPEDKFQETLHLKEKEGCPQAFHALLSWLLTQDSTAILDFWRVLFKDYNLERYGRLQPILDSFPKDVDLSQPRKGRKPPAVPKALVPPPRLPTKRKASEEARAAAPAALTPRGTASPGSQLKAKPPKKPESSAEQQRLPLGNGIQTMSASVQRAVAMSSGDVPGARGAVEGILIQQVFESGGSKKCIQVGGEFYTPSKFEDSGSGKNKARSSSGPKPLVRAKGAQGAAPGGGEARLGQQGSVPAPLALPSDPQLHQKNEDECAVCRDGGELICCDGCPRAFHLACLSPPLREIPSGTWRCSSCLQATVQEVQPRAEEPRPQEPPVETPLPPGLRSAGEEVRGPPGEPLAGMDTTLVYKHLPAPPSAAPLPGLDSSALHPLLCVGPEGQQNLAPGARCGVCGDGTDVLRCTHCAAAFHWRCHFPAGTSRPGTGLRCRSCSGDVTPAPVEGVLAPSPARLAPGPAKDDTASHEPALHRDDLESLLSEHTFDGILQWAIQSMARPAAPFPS

Variants of: B1
Experiment: AIRE transcriptional activation functional score (insulin promoter-GFP; nonsense median 0, synonymous median 1) (normalised score); higher = higher AIRE activity (more reporter activation)
Conditions: with insulin promoter-GFP reporter in HEK293
Measure Name: AIRE transcriptional activation functional score
Number only, please.

Some entries whose results are on file:
- I330V: 0.684
- H415N: 1.22
- L146V: 0.912

Lookup result for `P422H` ; measured AIRE transcriptional activation functional score: 0.986

Item: `L10S` | AIRE transcriptional activation functional score: -0.035

For record `Q275A` the listed AIRE transcriptional activation functional score is 0.853

get_value(item= `T334I` , readout=AIRE transcriptional activation functional score) returns 0.977

# AIRE transcriptional activation functional score of `G421C` = 1.58

Measured AIRE transcriptional activation functional score, `P27D` : -0.285
